test.name: Half life in rat at 5 mg/kg, iv
Type: ADME, organism-based
Design: dose 5 mg/kg, route intravenous
test.context: in vivo
value.kind: half-life
For clarity, give the value followed by its unit.

What the record says about `COc1ccccc1NC(=O)c1ccc(NC(=O)CCc2nc3ccccc3c(=O)[nH]2)cc1` : half-life is 22.2 min

----------
test.name: Fraction unbound in mouse plasma at 5 uM after 5 hrs by equilibrium dialysis method
Type: ADME, cell-free
value.kind: fraction unbound at 5 h, 5 µM
Quick one: just the number, no unit, thanks!

Worked set:
O=C(CCSc1nc2ccccc2c(=O)[nH]1)N[C@H]1CC[C@H](c2nnc(-c3ccccc3)o2)CC1 0.017
O=C(CCSc1nc2ccccc2c(=O)[nH]1)N[C@H]1CC[C@H](Oc2ccncc2)CC1 0.032
N#Cc1ccc(O[C@H]2CC[C@H](NC(=O)CCSc3nc4ccccc4c(=O)[nH]3)CC2)cc1Cl 0.002
O=C(CCSc1nc2c(c(=O)[nH]1)CCCC2)N[C@H]1CC[C@H](c2nnc(-c3ccccc3)o2)CC1 0.012

Kindly review the next compound as well.
What the record says about `N#Cc1ccc(O[C@H]2CC[C@H](NC(=O)CCSc3nc4ccccc4c(=O)[nH]3)CC2)cc1` : fraction unbound at 5 h, 5 µM is 0.006

----------
tested.on: Poly [ADP-ribose] polymerase tankyrase-1 (Homo sapiens)
Sequence (O95271 whole entry): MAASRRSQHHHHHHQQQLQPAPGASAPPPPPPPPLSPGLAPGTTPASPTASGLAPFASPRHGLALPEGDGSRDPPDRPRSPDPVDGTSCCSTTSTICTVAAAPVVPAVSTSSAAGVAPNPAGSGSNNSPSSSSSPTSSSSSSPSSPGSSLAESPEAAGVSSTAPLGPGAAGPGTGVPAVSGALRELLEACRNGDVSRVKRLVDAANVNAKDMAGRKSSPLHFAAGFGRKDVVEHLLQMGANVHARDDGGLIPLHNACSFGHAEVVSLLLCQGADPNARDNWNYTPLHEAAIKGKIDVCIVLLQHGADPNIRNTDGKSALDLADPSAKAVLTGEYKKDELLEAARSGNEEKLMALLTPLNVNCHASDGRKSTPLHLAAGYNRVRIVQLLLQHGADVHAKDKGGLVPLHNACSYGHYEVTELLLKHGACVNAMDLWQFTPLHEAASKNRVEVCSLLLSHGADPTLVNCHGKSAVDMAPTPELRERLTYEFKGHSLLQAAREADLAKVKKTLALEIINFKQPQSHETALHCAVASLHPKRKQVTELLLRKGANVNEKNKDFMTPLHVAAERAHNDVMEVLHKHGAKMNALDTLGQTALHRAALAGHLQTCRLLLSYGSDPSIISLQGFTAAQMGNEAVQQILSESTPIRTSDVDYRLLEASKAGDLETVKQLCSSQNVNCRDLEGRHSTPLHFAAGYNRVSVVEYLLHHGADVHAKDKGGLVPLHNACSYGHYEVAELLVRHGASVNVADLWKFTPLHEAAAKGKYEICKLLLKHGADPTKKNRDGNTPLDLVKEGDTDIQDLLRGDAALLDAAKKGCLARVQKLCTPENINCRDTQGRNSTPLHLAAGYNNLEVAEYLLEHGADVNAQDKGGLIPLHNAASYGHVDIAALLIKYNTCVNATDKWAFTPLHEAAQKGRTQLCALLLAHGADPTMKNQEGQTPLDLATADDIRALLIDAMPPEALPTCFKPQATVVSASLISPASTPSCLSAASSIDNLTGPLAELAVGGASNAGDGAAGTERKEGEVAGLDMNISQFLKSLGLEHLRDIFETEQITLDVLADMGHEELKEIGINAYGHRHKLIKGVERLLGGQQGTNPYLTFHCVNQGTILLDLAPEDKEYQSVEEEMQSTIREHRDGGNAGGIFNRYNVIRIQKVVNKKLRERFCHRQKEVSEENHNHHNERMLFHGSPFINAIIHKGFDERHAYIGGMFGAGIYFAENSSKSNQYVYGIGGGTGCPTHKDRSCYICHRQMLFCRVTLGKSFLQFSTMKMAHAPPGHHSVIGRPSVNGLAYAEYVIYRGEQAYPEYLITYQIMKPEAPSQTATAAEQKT
# T = IC50 below 200 nM (exclusive); F = IC50 at/above 200 nM

Past entries and their recorded results:
Cc1ccnc2c(NC(=O)c3ccc(N4C(=O)[C@@H]5[C@H](C4=O)[C@@H]4C=C[C@H]5C4)cc3)cccc12 T
O=C(CCc1nc2ccccc2c(=O)[nH]1)Nc1ccc(-c2c[nH]c(-c3ccccc3)n2)cc1 F
O=C(CCc1nc2ccccc2c(=O)[nH]1)Nc1ccc(-c2nc3ccccc3o2)cc1 F
Cn1c(-c2ccc(NC(=O)CCc3nc4ccccc4c(=O)[nH]3)cc2)nc2ccccc21 F
COc1ccccc1NS(=O)(=O)c1ccc(NC(=O)CCc2nc3ccccc3c(=O)[nH]2)cc1 F

Request: For this compound, is IC50 lower than 200 nM? `COc1ccccc1NC(=O)c1ccc(NC(=O)CCc2nc3ccccc3c(=O)[nH]2)cc1C`
Response: F

Request: For this compound, is IC50 lower than 200 nM? `COc1ccccc1NC(=O)c1ccc(NC(=O)CCc2nc3ccccc3c(=O)[nH]2)cc1`
Response: T

Request: For this compound, is IC50 lower than 200 nM? `O=C(CCc1nc2ccccc2c(=O)[nH]1)Nc1ccc(-c2csc(-c3ccccc3)n2)cc1`
Response: F
